test system: Wolbachia pipientis; experiment: Anti-Wolbachia Cell-Based Screen; assay type: functional; set-up: scale not given: in the data most compounds retested in dose-response had high values; details: 5 µM
The campaign covered roughly 48,000 compounds. About 13,000 (27%) showed an effect of 50% or more. The list shows a part of the results.
outcome-measure: Percent Effect

> print(dat)
                                    molecule  outcome.measure  obs.value
 1  CN(C(=O)C1CC(=O)N(CCc2ccccc2)C1)c1nccs1 (stereo not given)   Percent Effect     3.016%
 2  Cc1cccc(CN2C[C@@H]3COC[C@]3(CNC(=O)C3CCC3)C2)c1.O=C(O)C(F)(F)F   Percent Effect     92.72%
 3   CCN(Cc1cccc(F)c1)Cn1nc(C)c2c(C)onc2c1=O   Percent Effect     123.6%
 4  Cc1cccc(CN2C[C@@H]3COC[C@]3(CNC(=O)N3CCCC3)C2)n1.O=C(O)C(F)(F)F.O=C(O)C(F)(F)F   Percent Effect     5.948%
 5  Cc1cccc(-n2cc(C(=O)N3CCn4c(C)nnc4C3)nn2)c1   Percent Effect     7.104%
 6  CCOC(=O)N1CC(=O)N(CCc2ccccc2)CC(O)C1 (stereo not given)   Percent Effect     123.2%
 7        OCCOc1cc(F)ccc1NCc1nc(-c2cccs2)no1   Percent Effect     14.46%
 8  Cc1cccc(C(=O)NC2CCN(c3cnn(C)c3)C2=O)n1 (stereo not given)   Percent Effect    -1.568%
 9  O=C(c1ccc2cccnc2n1)N(Cc1ccsc1)CC1CCCO1 (stereo not given)   Percent Effect    -29.46%
10  COCCOc1ccccc1C(=O)N1CCCCC1c1nccs1 (stereo not given)   Percent Effect     1.225%
11  CC(C)(O)CN1CCN(C(=O)c2ccn(-c3cccc(F)c3)n2)CC1   Percent Effect    -183.4%
12  Cc1cc(C)n(C2CN(c3nc(-c4ccncc4)nc4c3CCC4)C2)n1   Percent Effect    -1.448%
13  CS(=O)(=O)N1CC[C@]2(C[C@@H](OCC3CCC3)CO2)C1   Percent Effect    0.0763%
14  O=C(NC[C@]12COC[C@H]1CN(Cc1nccs1)C2)N1CCCC1.O=C(O)C(F)(F)F   Percent Effect     28.78%
15  Cc1nn(CN(Cc2ccsc2)C2CC2)c(=O)c2noc(C)c12   Percent Effect    0.1409%
16      CCc1nnsc1C(=O)N1CCCN(Cc2cnn(C)c2)CC1   Percent Effect     1.125%
17     CCCN(Cc1ccccc1)Cn1nc(C)c2c(C)onc2c1=O   Percent Effect     10.45%
18         COc1cccc(CNCCc2cc(F)cc3c2OCOC3)c1   Percent Effect   -0.9463%
19  CC(C)CC(=O)N1CC(=O)N(CCc2ccccc2)CC(O)C1 (stereo not given)   Percent Effect     118.7%
20      CC(C)(C)C(=O)NCCNCc1ccc(Cl)c2cccnc12   Percent Effect    -7.376%
21    Cc1nn(CN(CC(C)C)C2CC2)c(=O)c2noc(C)c12   Percent Effect    -9.201%
22   CCN(Cc1cccc(C)c1)Cn1nc(C)c2c(C)onc2c1=O   Percent Effect     127.1%
23  Cc1nnc2n1CCN(C(=O)c1cn(-c3ccccc3Cl)nn1)C2   Percent Effect   -0.6863%
24  O=C(NC1CC1)c1cc(NC(=O)N2CCCC(O)C2)ccc1Cl (stereo not given)   Percent Effect    -7.994%
25       CSCCC(=O)N1CCCN(Cc2cnn(C(C)C)c2)CC1   Percent Effect     82.47%
26  Cc1ncccc1-c1cc2cccnc2n1CCCNC(=O)C1CC1.Cl   Percent Effect     102.7%
27  COc1cccc(CN2C[C@@H]3COC[C@]3(CNC(=O)C3CC3)C2)c1.O=C(O)C(F)(F)F   Percent Effect     100.6%
28  CNC(=O)C1Cc2ccccc2CN1CCCc1ccccc1 (stereo not given)   Percent Effect    -8.054%
29  CC(C)c1noc(CS(=O)(=O)CC(=O)NCc2ccccc2)n1   Percent Effect    -6.671%
30  CCN(Cc1cccc(Cl)c1)Cn1nc(C)c2c(C)onc2c1=O   Percent Effect     4.514%
31  CC(C(=O)O)N1CC2(CCC1=O)CCN(CCc1ccccc1)CC2 (stereo not given)   Percent Effect    -3.737%
32  Cc1ccccc1CN1C[C@@H]2COC[C@]2(CNC(=O)C2CCC2)C1.O=C(O)C(F)(F)F   Percent Effect     116.7%
33  Cc1ccc(-n2cc(C(=O)N3CCn4c(C)nnc4C3)nn2)cc1   Percent Effect     111.3%
34  Cc1nnc2n1CCN(C(=O)c1ccn(-c3cccc(F)c3)n1)C2   Percent Effect     108.9%
35  CC(C)(C)OC(=O)N1CC(=O)N(CCc2ccccc2)CC(O)C1 (stereo not given)   Percent Effect     114.6%
36       CCCN(CC)Cn1ncc2cn(-c3ccccc3)nc2c1=O   Percent Effect     21.01%
37  CC(C)c1cc(C(=O)N2CCCN(CCCc3ccccc3)CC2)[nH]n1   Percent Effect   0.07047%
38  Cc1cccc(CN(Cn2nc(C)c3c(C)onc3c2=O)C2CC2)c1   Percent Effect    -8.073%
39  CCN(CC)C(CNCc1ccc(O)cc1)c1ccco1 (stereo not given)   Percent Effect    0.1551%
40      COCc1ccccc1C(=O)N1CCn2c(nnc2C(C)C)C1   Percent Effect     6.004%
41  Cc1ccccc1C(C)CC(=O)N1CC[C@H](O)C1 (stereo not given in full)   Percent Effect    -9.659%
42  CC(C)(C)N1CC(C(=O)N2CCN(CCc3ccccc3)CC2)CC1=O (stereo not given)   Percent Effect     4.322%
43   Cc1nnc2n1CCN(C(=O)c1cn(-c3ccccc3)nn1)C2   Percent Effect     102.5%
44  CCn1cnnc1CNC(=O)NCC(C)(CC)N1CCOCC1 (stereo not given)   Percent Effect    -7.317%
45  Cc1[nH]ccc1C(=O)NCC1CC(=O)N(CCc2ccccc2)C1 (stereo not given)   Percent Effect     5.345%
